- Study system: CATPO E484I variant (Scytalidium thermophilum (Humicola insolens), UniProt M4GGR5, E503I)
- Sequence (M4GGR5 entry or part of it E503I): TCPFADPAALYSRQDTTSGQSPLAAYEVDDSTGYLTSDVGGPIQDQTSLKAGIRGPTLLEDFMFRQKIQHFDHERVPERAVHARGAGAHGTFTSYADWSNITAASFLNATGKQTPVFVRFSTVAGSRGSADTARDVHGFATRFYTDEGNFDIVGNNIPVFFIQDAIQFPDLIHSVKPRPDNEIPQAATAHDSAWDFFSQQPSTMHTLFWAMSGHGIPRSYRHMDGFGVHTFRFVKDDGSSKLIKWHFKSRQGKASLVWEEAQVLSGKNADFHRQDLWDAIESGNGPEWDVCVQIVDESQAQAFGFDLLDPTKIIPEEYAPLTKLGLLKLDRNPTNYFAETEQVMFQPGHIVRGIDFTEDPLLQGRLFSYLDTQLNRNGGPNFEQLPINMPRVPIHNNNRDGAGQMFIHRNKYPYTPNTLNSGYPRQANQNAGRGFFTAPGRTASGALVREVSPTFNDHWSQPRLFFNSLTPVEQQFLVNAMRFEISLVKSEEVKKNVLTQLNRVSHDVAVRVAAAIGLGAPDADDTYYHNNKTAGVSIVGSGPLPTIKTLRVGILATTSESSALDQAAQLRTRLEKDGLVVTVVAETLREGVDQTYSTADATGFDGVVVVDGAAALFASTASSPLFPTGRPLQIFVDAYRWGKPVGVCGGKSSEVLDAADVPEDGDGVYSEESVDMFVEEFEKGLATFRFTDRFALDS
- Assay type: biochemical
- Details: pH 7.0 (ABTS pH 5.0), 60°C
Measurement type: K m

Reference set (3 entries):
In: Suppose we examine the compound Cc1ccc(O)c(O)c1 [4-Methylcatechol, 4-methylcatechol] ; what K m value has been reported?
Out: 35 ± 0.7 mM

In: Suppose we examine the compound Oc1ccc(O)cc1 [Hydroquinone, p-hydroquinone] ; what K m value has been reported?
Out: 45 ± 1.3 mM

In: Suppose we examine the compound CCn1c(=NN=c2sc3cc(S(=O)(=O)O)ccc3n2CC)sc2cc(S(=O)(=O)O)ccc21 [ABTS] ; what K m value has been reported?
Out: 50 ± 0.5 mM

Continuing:
In: Suppose we examine the compound Oc1cccc(O)c1O [Pyrogallol, pyrogallol] ; what K m value has been reported?
Out: 40 ± 1.1 mM

In: Suppose we examine the compound CC(C)(C)c1ccc(O)c(O)c1 [1,4-tert-Butylcatechol, 4-tert-butylcatechol] ; what K m value has been reported?
Out: 37 ± 0.4 mM

In: Suppose we examine the compound Oc1ccccc1O [Catechol, catechol] ; what K m value has been reported?
Out: 30 ± 1.0 mM

###

- Study system: CATPO T188F variant (Scytalidium thermophilum (Humicola insolens), UniProt M4GGR5, T207F)
- Sequence (M4GGR5 entry or part of it T207F): as the sequence (M4GGR5 entry or part of it E503I) above
- Experimental protocol: biochemical
- Details: catechol oxidation by T188F; read-out: K i
In this section we review reported pKi values for a set of compounds.
Scale note: pKi = -log10(concentration in M).

Reference set (2 entries):
In: Suppose we examine the compound CCn1c(=NN=c2sc3cc(S(=O)(=O)O)ccc3n2CC)sc2cc(S(=O)(=O)O)ccc21 ; what pKi value has been reported?
Out: 1.08

In: Suppose we examine the compound [F-].[Na+] [NaF, sodium fluoride] ; what pKi value has been reported?
Out: 2.19

Note: attention shifts to another entry.
In: Suppose we examine the compound [N-]=[N+]=[N-].[Na+] [Sodium azide, sodium azide] ; what pKi value has been reported?
Out: 1.21

###

- Study system: CATPO T188F variant (Scytalidium thermophilum (Humicola insolens), UniProt M4GGR5, T207F)
- Format: biochemical
Please note: yes (1) applies when V max is 40000 mM/min or greater, and no (0) applies otherwise.

Example cases with answers are listed next.
In: Confirm if V max reported for the compound Oc1ccc(O)cc1 [Hydroquinone, p-hydroquinone] is 40000 mM/min or above.
Out: no (0)

In: Confirm if V max reported for the compound Oc1cccc(O)c1O is 40000 mM/min or above.
Out: no (0)

In: Confirm if V max reported for the compound Cc1ccc(O)c(O)c1 is 40000 mM/min or above.
Out: yes (1)

In: Confirm if V max reported for the compound CCn1c(=NN=c2sc3cc(S(=O)(=O)O)ccc3n2CC)sc2cc(S(=O)(=O)O)ccc21 is 40000 mM/min or above.
Out: no (0)

Continuing:
In: Confirm if V max reported for the compound CC(C)(C)c1ccc(O)c(O)c1 is 40000 mM/min or above.
Out: yes (1)

In: Confirm if V max reported for the compound Oc1ccccc1O is 40000 mM/min or above.
Out: yes (1)

###

- Study system: CATPO T188D variant (Scytalidium thermophilum (Humicola insolens), UniProt M4GGR5, T207D)
- Sequence (M4GGR5 entry or part of it T207D): as the sequence (M4GGR5 entry or part of it E503I) above
- Type: biochemical
- Details: pH 7.0 (ABTS pH 5.0), 60°C
Measurement type: K m (mM)
# output: bare number, implied unit mM

Reference set (5 entries):
In: Suppose we examine the compound Oc1cccc(O)c1O [Pyrogallol, pyrogallol] ; what K m value has been reported?
Out: 41

In: Suppose we examine the compound Oc1ccccc1O [Catechol, catechol] ; what K m value has been reported?
Out: 25

In: Suppose we examine the compound Oc1ccc(O)cc1 [Hydroquinone, p-hydroquinone] ; what K m value has been reported?
Out: 46

In: Suppose we examine the compound CCn1c(=NN=c2sc3cc(S(=O)(=O)O)ccc3n2CC)sc2cc(S(=O)(=O)O)ccc21 [ABTS] ; what K m value has been reported?
Out: 55

In: Suppose we examine the compound CC(C)(C)c1ccc(O)c(O)c1 [1,4-tert-Butylcatechol, 4-tert-butylcatechol] ; what K m value has been reported?
Out: 38

Note: attention shifts to another entry.
In: Suppose we examine the compound Cc1ccc(O)c(O)c1 [4-Methylcatechol, 4-methylcatechol] ; what K m value has been reported?
Out: 30
